# maps each entry to its IC50
- System tested: ALDH1a1 (Homo sapiens (Human))
- Sequence (P00352 whole entry): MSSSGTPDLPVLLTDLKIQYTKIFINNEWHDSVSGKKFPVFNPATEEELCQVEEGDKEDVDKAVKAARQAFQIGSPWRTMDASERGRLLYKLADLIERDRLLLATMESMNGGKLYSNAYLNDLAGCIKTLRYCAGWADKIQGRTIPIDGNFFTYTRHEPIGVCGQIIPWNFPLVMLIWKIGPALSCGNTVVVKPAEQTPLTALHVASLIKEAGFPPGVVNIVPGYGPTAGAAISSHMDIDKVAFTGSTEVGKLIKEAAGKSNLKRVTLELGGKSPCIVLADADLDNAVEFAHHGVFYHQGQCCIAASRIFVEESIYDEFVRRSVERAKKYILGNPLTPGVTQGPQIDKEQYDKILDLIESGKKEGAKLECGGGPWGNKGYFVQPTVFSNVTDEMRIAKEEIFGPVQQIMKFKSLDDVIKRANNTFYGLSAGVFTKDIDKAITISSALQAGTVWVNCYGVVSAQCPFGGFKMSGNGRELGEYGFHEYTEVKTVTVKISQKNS
- Test method notes: ALDH assay (diaphorase/resazurin), ALDH1a1 inhibition
- Type: biochemical
- Condition description: Table IA; mean of at least two independent experiments; read-out: IC50 (μM) ± SE (ALDH1a1)

CCOCCNC(=S)SSC(=S)NCCOCC [Compound I-2m, reference compound]: 0.04 µM
CN(C)C(=S)SSC(=S)N(C)C [Compound I-2g, reference compound]: 0.02 µM
CCN(CCC(=O)O)C(=S)SSC(=S)N(CC)CCC(=O)O: 0.15 µM
CCN(CCO)C(=S)SSC(=S)N(CC)CCO: 2.54 µM

Let's switch to this molecule now.
Q. Please report the measured IC50 for NCCSSCCN [Compound 4, Cystamine, reference compound]
A. > 100 µM
